Can you tell me pIC50 for the items I'm about to list?
assayed system: Liver carboxylesterase 1 (Homo sapiens)
Sequence (P23141 whole entry): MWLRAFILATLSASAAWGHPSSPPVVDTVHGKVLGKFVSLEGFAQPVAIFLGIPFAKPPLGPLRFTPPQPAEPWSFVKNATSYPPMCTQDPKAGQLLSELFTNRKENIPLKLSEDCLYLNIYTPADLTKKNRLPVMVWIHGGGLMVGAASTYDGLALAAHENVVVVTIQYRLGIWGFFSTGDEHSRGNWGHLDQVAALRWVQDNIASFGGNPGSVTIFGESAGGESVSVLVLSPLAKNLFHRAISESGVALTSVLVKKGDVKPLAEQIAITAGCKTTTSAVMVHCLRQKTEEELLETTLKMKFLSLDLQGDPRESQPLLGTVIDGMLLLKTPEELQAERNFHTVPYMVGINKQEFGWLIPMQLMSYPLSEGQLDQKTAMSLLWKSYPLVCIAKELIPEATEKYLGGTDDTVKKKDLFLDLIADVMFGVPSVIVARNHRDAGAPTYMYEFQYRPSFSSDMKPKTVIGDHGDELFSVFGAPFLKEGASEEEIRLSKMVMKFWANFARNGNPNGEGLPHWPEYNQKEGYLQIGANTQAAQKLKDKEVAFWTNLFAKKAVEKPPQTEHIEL
pIC50: −log10 of the molar value.

input: Kindly state the measured pIC50 obtained for CCCCCCCC[C@@H]1OC(=O)c2c(O)cccc21 [PAECILOCIN A] with Liver carboxylesterase 1 (Homo sapiens).
output: < 4.00

input: Kindly state the measured pIC50 obtained for O=[N+]([O-])c1ccc(OP(=O)(O)Oc2ccc([N+](=O)[O-])cc2)cc1 with Liver carboxylesterase 1 (Homo sapiens).
output: 6.68

input: Kindly state the measured pIC50 obtained for CCCCCCCCC(=O)c1cccc(O)c1-c1cc2c(C(=O)CCCCCCCC)cccc2o1 with Liver carboxylesterase 1 (Homo sapiens).
output: < 4.00

---

Target chain: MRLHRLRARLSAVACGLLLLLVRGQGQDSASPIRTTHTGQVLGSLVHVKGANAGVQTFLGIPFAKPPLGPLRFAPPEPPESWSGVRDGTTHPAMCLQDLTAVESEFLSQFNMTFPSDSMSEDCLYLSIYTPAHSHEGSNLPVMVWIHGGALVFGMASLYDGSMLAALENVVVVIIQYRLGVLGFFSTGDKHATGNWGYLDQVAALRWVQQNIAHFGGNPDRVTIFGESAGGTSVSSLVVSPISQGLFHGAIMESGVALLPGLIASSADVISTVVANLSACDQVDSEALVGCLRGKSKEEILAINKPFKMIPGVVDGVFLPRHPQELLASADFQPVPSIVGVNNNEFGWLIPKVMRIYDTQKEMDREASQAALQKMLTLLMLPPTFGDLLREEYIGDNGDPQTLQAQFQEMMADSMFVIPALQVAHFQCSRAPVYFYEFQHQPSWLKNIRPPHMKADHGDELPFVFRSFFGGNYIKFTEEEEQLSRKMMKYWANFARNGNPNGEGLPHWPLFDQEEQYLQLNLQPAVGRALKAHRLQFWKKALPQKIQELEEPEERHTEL
endpoint label: IC50 (nM)
Give just the number in nM; leave the unit off.

input: Look at this compound and give its reported IC50. CCCCCCCCC(=O)c1cccc(O)c1-c1cc2c(C(=O)CCCCCCCC)cccc2o1
output: 2010
